- Tested on: MDA-MB-435 melanoma
- method.notes: NCI-60 one-dose screen, 48 h
- assay.conditions: 10 µM unless noted
- Description: Growth inhibition of the MDA-MB-435 human Melanoma tumor cell line is measured as a screen for anti-cancer activity. Cells are grown in 96 well plates and exposed to the test compound for 48 hours. Compounds are tested at a single concentration, which is 10^-5 M for most compounds. The reported endpoint is percent growth (GI% or GIPRCNT), where numbers from 0 - 100% represent growth inhibition, and numbers from -100% - 0 represent cell death. […]
This is part of a sample that, as a whole, favours compounds with a hit. Of some 83,000 tested, about 20% had one in any assay. Activity calls are given as the source filed them. The calls were made as follows: active = growth percent below 10; inactive = the rest.
Write down the outcome that applies. Available outcomes: Y = active, N = inactive

Please review the following examples before continuing.
CCSc1ncc(Br)c(Sc2nc(N)nc3nc[nH]c23)n1: N
CC(=O)N1N=C(c2ccc(C(F)(F)F)cc2)CC1c1ccc2c(c1)OCO2 (centres undefined): N
COc1ccc(-c2cc(-c3cccnc3)nc3sc(C(=O)Nc4ccccc4)c(N)c23)cc1OC: N
Cc1cc(=O)[nH]c(/C(=N/Nc2ccccc2)C(=O)c2ccc(Cl)cc2)n1: N
COc1cc2c(cc1OC)C(CC1(O)CCCCC1)N(S(=O)(=O)c1ccc(C)cc1)CC2 (centres undefined): Y
N[C@H](CS)C(=O)O: N
COc1ccc2[nH]c(=O)c(CNc3ccc(Nc4nccc(-c5ccc(Cl)cc5)n4)cc3)cc2c1: N
CN1CCN(CCCCCN=c2cc3c(=O)n(CCCCCN4CCN(C)CC4)c(=O)c4c(NCCCCCN5CCN(C)CC5)cc5c(O)n(CCCCCN6CCN(C)CC6)c(=O)c2c5c4-3)CC1: Y

What is the recorded call for this compound in the test? C=C1CCC2C3(C)COC(c4ccccc4)OC3CCC2(C)C1C/C=C1/C(=O)OCC1OC(C)=O (centres undefined) N

Values were extracted from PubChem BioAssay (NCI).
